B1: CPEB3 Ribozyme (parent)
chain: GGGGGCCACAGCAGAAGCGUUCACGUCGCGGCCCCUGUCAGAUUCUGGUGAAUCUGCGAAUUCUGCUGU

Variants of: B1
Assay: self-cleavage, relative activity (ratio to wild type); higher = more cleavage; co-transcriptional
Would you kindly list self-cleavage for each of these variants?
Answers are plain numbers.

Example entries and their recorded answers appear below.
1. U20A C39A    0.169
2. G14C A16U    0.28

Below are some variants; for each one, tell me its self-cleavage.
1. G3C U20A
2. G4A G58U

## Output
1. 0.0845
2. 0.9

Below are some variants; for each one, tell me its self-cleavage.
1. C34U C39U
2. G37C G65U
3. A23U A52C
4. U62G G68U
5. G2C G41U

## Output
[0.943, 0.237, 1.04, 0.683, 0.101]

meta.source: the RNAGym collection of RNA variant scans (doi:10.7554/elife.80360)
